# System: NO generated from nitric oxide synthase (NOS)
# methodSummary: Inhibitory activity against NO generated from NOS (EnzyChrom kit)
# Assay type: biochemical
# conditionContext: mean ± SD, 1-50 µM
pIC50: −log10 of the molar value.
valueKind: pIC50

compound | targetEntity | endpointResult
COc1ccc(C2Nc3c(Br)cc(I)cc3C(C)=[N+]2[O-])cc1 (centres unmarked) | NO generated from nitric oxide synthase (NOS) | 4.81
CC1=[N+]([O-])C(c2ccc(F)cc2)Nc2ccc(I)cc21 (centres unmarked) | NO generated from nitric oxide synthase (NOS) | 5.33
O=C1O[C@H]([C@@H](O)CO)C(O)=C1O [Ascorbic acid, ascorbic acid, reference compound] | NO generated from nitric oxide synthase (NOS) | 6.00
CC1=[N+]([O-])C(c2ccc(F)cc2)Nc2c(Br)cc(I)cc21 (centres unmarked) | NO generated from nitric oxide synthase (NOS) | 5.46
CC1=[N+]([O-])C(c2ccccc2)Nc2ccc(Br)cc21 (centres unmarked) | NO generated from nitric oxide synthase (NOS) | 5.28
CC1=[N+]([O-])C(c2ccccc2)Nc2c(I)cc(Br)cc21 (centres unmarked) | NO generated from nitric oxide synthase (NOS) | 4.54
COc1ccc(C2Nc3c(I)cc(Br)cc3C(C)=[N+]2[O-])cc1 (centres unmarked) | NO generated from nitric oxide synthase (NOS) | 5.97
CC1=[N+]([O-])C(c2ccc(Cl)cc2)Nc2ccc(Br)cc21 (centres unmarked) | NO generated from nitric oxide synthase (NOS) | 5.96

====

# Test system: breast cancer (MCF-7) cell line
# methodSummary: MTT cytotoxicity assay, MCF-7
# conditionContext: Conc. 1 (µM per method); Table S2
valueKind: Cell viability percentage, MCF-7

compound | targetEntity | endpointResult
COc1ccc(C2Nc3c(Br)cc(I)cc3C(C)=[N+]2[O-])cc1 (stereo not shown) | breast cancer (MCF-7) cell line | 72,4624%
CC1=[N+]([O-])C(c2ccc(F)cc2)Nc2c(I)cc(Br)cc21 (stereo not shown) | breast cancer (MCF-7) cell line | 60,354%
CC1=[N+]([O-])C(c2ccc(Cl)cc2)Nc2c(Br)cc(I)cc21 (stereo not shown) | breast cancer (MCF-7) cell line | 46,2908%
CC1=[N+]([O-])C(c2ccccc2)Nc2c(I)cc(Br)cc21 (stereo not shown) | breast cancer (MCF-7) cell line | 24,1184%
CC1=[N+]([O-])C(c2ccc(F)cc2)Nc2c(Br)cc(I)cc21 (stereo not shown) | breast cancer (MCF-7) cell line | 34,8969%
CC1=[N+]([O-])C(c2ccccc2)Nc2ccc(I)cc21 (stereo not shown) | breast cancer (MCF-7) cell line | 27,8443%
CC1=[N+]([O-])C(c2ccc(F)cc2)Nc2ccc(Br)cc21 (stereo not shown) | breast cancer (MCF-7) cell line | 39,7538%
COc1ccc(C2Nc3ccc(Br)cc3C(C)=[N+]2[O-])cc1 (stereo not shown) | breast cancer (MCF-7) cell line | 47,0559%
COc1ccc(C2Nc3ccc(I)cc3C(C)=[N+]2[O-])cc1 (stereo not shown) | breast cancer (MCF-7) cell line | 45,0932%
CC1=[N+]([O-])C(c2ccc(Cl)cc2)Nc2ccc(I)cc21 (racemic) | breast cancer (MCF-7) cell line | 42,0991%
CC1=[N+]([O-])C(c2ccccc2)Nc2ccc(Br)cc21 (stereo not shown) | breast cancer (MCF-7) cell line | 26,2641%
CC1=[N+]([O-])C(c2ccc(F)cc2)Nc2ccc(I)cc21 (stereo not shown) | breast cancer (MCF-7) cell line | 69,8879%
CC1=[N+]([O-])C(c2ccccc2)Nc2c(Br)cc(I)cc21 (stereo not shown) | breast cancer (MCF-7) cell line | 25,998%
COc1ccc(C2Nc3c(I)cc(Br)cc3C(C)=[N+]2[O-])cc1 (stereo not shown) | breast cancer (MCF-7) cell line | 66,3742%
CC1=[N+]([O-])C(c2ccc(Cl)cc2)Nc2ccc(Br)cc21 (stereo not shown) | breast cancer (MCF-7) cell line | 46,7898%
CC1=[N+]([O-])C(c2ccc(Cl)cc2)Nc2c(I)cc(Br)cc21 (stereo not shown) | breast cancer (MCF-7) cell line | 42,1823%
